These data points were gathered from patent US20180148477A1.

test.target: human α4β7 integrin on cells (human) (UniProt P13612)
test.protocol: RPMI8866 adhesion to MAdCAM-1
Bridge positions count the residues as written; N and C are the ends. Square brackets hold non-standard residues; d marks the D form. 2Nal = N[C@@H](Cc1ccc2ccccc2c1)C(=O)O; NMeR = CN[C@@H](CCCNC(=N)N)C(=O)O; Pen = CC(C)(S)[C@H](N)C(=O)O; Dab = NCC[C@H](N)C(=O)O
measure: IC50

# binder, IC50
rows = [
    ("Ac-[Pen][NMeR]SDTL[Pen]WE[Dab]-NH2 (disulfide 1-7; also: dimer (monomer)2-DIG, DIG attachment place not given here) [SEQ ID NO: 97]", "< 10 nM"),
    ("Ac-[Pen][NMeR]SDFL[Pen][2Nal][dE]-NH2 (disulfide 1-7; SMILES CC(=O)N[C@@H]1C(=O)N(C)[C@@H](CCCNC(=N)N)C(=O)N[C@@H](CO)C(=O)N[C@@H](CC(=O)O)C(=O)N[C@@H](Cc2ccccc2)C(=O)N[C@@H](CC(C)C)C(=O)N[C@H](C(=O)N[C@@H](Cc2ccc3ccccc3c2)C(=O)N[C@H](CCC(=O)O)C(N)=O)C(C)(C)SSC1(C)C) [SEQ ID NO: 157]", "> 1000 nM"),
]

# IC50 of Ac-[Pen][NMeR]SDTL[Pen][2Nal]E[dK]-NH2 (disulfide 1-7; also: dimer via DIG, attachment site not given here) [Peptide 212] = 2.5 nM
